Target: 1-deoxy-D-xylulose 5-phosphate reductoisomerase (Mycobacterium tuberculosis)
Sequence (P9WNS1 whole entry): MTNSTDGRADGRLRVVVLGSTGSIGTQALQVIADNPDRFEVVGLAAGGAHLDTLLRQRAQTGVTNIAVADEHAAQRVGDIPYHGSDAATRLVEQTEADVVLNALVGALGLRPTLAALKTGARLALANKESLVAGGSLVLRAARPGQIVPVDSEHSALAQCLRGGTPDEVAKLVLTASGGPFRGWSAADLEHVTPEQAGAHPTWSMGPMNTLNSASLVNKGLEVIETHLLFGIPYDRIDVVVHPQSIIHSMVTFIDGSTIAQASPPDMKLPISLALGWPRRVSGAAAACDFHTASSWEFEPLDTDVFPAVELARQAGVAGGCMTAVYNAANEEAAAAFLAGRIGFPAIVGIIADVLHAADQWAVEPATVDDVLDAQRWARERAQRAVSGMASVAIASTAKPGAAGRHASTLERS
pIC50: −log10 of the molar value.
Each entry below lists one item and its recorded pIC50 value.
property_measured: pIC50

1) O=c1cccc(CCP(=O)(O)O)n1O ... 4.28
2) O=P(O)(O)CCc1ccc(O)c(O)c1 ... 4.39
3) CC(=O)N(O)CCc1c(C(=O)O)noc1C ... 3.82

====

system: Mycobacterium tuberculosis; assay: Antimycobacterial activity against Mycobacterium tuberculosis by whole-cell assay; format: functional
property_measured: MIC

1) O=P(O)(O)CCc1ccc(O)c(O)c1 ... > 512 µg/mL
2) O=c1oc2cc(-c3ccccc3)cnc2n1CCCP(=O)(O)O ... 256 µg/mL
3) CC(=O)N(O)CCc1c(C(=O)O)noc1C ... > 512 µg/mL
4) O=c1cccc(CCP(=O)(O)O)n1O ... > 512 µg/mL

====

Biological target: 1-deoxy-D-xylulose 5-phosphate reductoisomerase (Mycobacterium tuberculosis)
Sequence (whole entry): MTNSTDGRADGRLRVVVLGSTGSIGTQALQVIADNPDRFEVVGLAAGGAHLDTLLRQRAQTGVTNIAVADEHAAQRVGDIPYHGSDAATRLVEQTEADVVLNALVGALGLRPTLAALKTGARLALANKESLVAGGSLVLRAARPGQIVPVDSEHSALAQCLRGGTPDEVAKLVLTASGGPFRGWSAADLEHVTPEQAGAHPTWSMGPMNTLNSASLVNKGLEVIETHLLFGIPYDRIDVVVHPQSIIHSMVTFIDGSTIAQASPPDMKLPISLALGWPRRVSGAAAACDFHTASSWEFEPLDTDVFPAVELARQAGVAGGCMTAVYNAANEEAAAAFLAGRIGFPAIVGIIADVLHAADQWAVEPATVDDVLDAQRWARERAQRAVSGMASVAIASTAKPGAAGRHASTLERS
Test: Inhibition of Mycobacterium tuberculosis DXR assessed as reduction of 1-deoxy-D-xylulose 5-phosphate into 2-C-methyl-D-erythritol-4-phosphate at 100 uM measured for every 5 secs upto 500 secs by spectrophotometry analysis
property_measured: inhibition (%)

1) CC(=O)N(O)CCCP(=O)(O)OCCc1ccccc1 ... 23
2) O=C1N[C@H](CCP(=O)(O)O)CO1 ... 0
3) CC(=O)N(O)CCC1NC(=O)NC1=O (stereo not given) ... 13
4) O=c1cccc(CCP(=O)(O)O)n1O ... 61
5) O=c1oc2cc(-c3ccccc3)cnc2n1CCCP(=O)(O)O ... 11
